systemUnderTest: Excitatory amino acid transporter 2 (Homo sapiens, UniProt P43004)
Sequence (P43004 whole entry): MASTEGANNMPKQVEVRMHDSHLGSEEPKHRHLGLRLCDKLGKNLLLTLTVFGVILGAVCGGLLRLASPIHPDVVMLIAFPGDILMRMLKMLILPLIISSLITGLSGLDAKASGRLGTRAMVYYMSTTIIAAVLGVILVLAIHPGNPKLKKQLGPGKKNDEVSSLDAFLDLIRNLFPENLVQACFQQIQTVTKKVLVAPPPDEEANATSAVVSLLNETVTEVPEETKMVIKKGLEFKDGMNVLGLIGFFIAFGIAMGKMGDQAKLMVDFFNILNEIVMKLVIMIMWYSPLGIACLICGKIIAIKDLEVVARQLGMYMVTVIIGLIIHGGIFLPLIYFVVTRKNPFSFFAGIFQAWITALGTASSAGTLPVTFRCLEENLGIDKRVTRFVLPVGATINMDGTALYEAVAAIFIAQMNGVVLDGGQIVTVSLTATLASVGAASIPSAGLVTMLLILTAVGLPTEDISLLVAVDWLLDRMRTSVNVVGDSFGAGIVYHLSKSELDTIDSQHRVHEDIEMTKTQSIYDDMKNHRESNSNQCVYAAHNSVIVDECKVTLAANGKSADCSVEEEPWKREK
assayMethodText: Inhibition of [3H]D-Asp uptake at human EAAT2 in HEK293 cells
Assay type: cell-based
recordedConditions: read-out: Ki
propertyName: pKi
The read-out pKi is expressed as -log10 of concentration in moles per litre.

Please review the entries below; each comes with its answer.
[ask] Need pKi of N[C@@H](C[C@@H](CCC(=O)NCC(c1ccccc1)c1ccccc1)C(=O)O)C(=O)O , thanks.
[reply] 4.02

[ask] Name the reported pKi value associated with the compound N[C@@H](C[C@@H](CO)C(=O)O)C(=O)O
[reply] 3.85

[ask] So what does the record say about pKi for N[C@@H](C[C@@H](CCC(=O)NCc1ccccc1)C(=O)O)C(=O)O ?
[reply] 3.39

[ask] Item N[C@@H](CCC(=O)O)C(=O)O has what recorded pKi?
[reply] 4.21

[ask] Item NC(=O)CC[C@H](C[C@H](N)C(=O)O)C(=O)O has what recorded pKi?
[reply] 3.54

New cases:
[ask] Could you tell me which pKi is on file for COC(=O)CC[C@H](C[C@H](N)C(=O)O)C(=O)O ?
[reply] 3.74

[ask] Param item = CCCNC(=O)CC[C@H](C[C@H](N)C(=O)O)C(=O)O ; retrieve measured pKi.
[reply] 3.00

[ask] Given the entry N[C@@H](C[C@@H](COCc1ccccc1)C(=O)O)C(=O)O , report its measured pKi.
[reply] 3.54

[ask] Given the compound CNC(=O)CC[C@H](C[C@H](N)C(=O)O)C(=O)O , what is its reported pKi?
[reply] 3.17

----------
# maps each entry to its pIC50
systemUnderTest: Excitatory amino acid transporter 2 (Homo sapiens)
assayMethodText: Inhibition of glutamate-induced depolarization in human EAAT2 expressed in HEK293 cells by FMP assay
Assay type: cell-based
recordedConditions: read-out: IC50
// pIC50 here means minus log10 of the molar concentration (mol/L)

[ask] Need pIC50 of CCCNC(=O)CC[C@H](C[C@H](N)C(=O)O)C(=O)O , thanks.
[reply] 2.52

[ask] // returns reported pIC50 for input N[C@@H](C[C@@H](CCC(=O)NCC(c1ccccc1)c1ccccc1)C(=O)O)C(=O)O
[reply] 4.12

[ask] # query: pIC50 of entry COC(=O)CC[C@H](C[C@H](N)C(=O)O)C(=O)O
[reply] 3.52

[ask] Requested read-out: pIC50. Entry: N[C@@H](C[C@@H](CCC(=O)O)C(=O)O)C(=O)O
[reply] 2.52

Lab note: next molecule to report on.
[ask] Would you mind telling me what pIC50 value was observed for CNC(=O)CC[C@H](C[C@H](N)C(=O)O)C(=O)O ?
[reply] 3.00

----------
Listed here are compounds together with their documented IC50.
systemUnderTest: UniProt:P43005
Sequence (P43005 whole entry): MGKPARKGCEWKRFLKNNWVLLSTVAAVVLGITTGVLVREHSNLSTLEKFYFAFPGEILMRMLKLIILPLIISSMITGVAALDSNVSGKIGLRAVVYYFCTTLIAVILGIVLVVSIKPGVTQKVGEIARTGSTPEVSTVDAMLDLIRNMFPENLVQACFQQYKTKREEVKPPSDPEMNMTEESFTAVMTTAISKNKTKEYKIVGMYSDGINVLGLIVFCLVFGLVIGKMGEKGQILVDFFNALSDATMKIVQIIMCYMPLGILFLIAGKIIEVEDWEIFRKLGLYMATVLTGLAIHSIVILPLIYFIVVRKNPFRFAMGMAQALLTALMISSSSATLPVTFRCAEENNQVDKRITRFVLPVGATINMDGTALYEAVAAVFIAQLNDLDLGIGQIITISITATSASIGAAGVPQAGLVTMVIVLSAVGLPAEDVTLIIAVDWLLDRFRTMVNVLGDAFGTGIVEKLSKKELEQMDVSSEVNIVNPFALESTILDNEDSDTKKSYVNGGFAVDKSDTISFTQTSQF
assayMethodText: Inhibition of glutamate-induced depolarization in human EAAT3 expressed in HEK293 cells by FMP assay
Assay type: cell-based
recordedConditions: read-out: IC50
Supply the numeric figure in mM, leaving out any unit text.

For orientation, consider the following solved cases.
[ask] // lookup IC50 | system=UniProt:P43005 | key= N[C@@H](C[C@@H](CCC(=O)NCC(c1ccccc1)c1ccccc1)C(=O)O)C(=O)O
[reply] 1

[ask] Form: Entry = N[C@@H](C[C@@H](CCC(=O)O)C(=O)O)C(=O)O | System = UniProt:P43005 | IC50 = ____
[reply] 3

[ask] Notebook: pull reported IC50 for UniProt:P43005, entry NC(C(=O)O)C(OCc1ccccc1)C(=O)O (racemic)
[reply] 0.0093

With those in mind, consider the next compound.
[ask] Given the entry N[C@@H](C[C@@H](CO)C(=O)O)C(=O)O , what IC50 was observed with UniProt:P43005?
[reply] 3
